tgt: Amine oxidase [flavin-containing] A (Rattus norvegicus)
Sequence (P21396 whole entry): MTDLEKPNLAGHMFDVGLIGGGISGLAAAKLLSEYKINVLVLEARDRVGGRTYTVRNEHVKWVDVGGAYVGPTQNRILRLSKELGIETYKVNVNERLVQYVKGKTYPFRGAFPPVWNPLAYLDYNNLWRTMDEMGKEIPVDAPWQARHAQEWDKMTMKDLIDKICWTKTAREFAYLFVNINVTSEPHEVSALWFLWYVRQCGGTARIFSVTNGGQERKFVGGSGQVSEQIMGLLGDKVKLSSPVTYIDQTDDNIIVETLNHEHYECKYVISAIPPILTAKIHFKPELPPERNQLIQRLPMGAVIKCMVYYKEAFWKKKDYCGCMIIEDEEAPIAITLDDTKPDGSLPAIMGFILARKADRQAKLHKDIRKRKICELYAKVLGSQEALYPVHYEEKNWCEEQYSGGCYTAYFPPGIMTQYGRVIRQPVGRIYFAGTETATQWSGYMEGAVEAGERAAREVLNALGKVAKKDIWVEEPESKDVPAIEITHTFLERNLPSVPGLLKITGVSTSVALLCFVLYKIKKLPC
protocol_text: Inhibition of rat MAO-A in rat-liver mitochondrial-fraction using [14C]-5-HT substrate
parameter: pIC50
Answers are plain numbers, as −log10 of the molar value.

Short answer for C#CCNCc1cc2cc(OCc3ccccc3)ccc2[nH]1 : pIC50 was 7.66

---

Give measured IC50 for each item. Keep answers brief.
tgt: Amine oxidase [flavin-containing] A (Homo sapiens, UniProt P21397)
Sequence (P21397 whole entry): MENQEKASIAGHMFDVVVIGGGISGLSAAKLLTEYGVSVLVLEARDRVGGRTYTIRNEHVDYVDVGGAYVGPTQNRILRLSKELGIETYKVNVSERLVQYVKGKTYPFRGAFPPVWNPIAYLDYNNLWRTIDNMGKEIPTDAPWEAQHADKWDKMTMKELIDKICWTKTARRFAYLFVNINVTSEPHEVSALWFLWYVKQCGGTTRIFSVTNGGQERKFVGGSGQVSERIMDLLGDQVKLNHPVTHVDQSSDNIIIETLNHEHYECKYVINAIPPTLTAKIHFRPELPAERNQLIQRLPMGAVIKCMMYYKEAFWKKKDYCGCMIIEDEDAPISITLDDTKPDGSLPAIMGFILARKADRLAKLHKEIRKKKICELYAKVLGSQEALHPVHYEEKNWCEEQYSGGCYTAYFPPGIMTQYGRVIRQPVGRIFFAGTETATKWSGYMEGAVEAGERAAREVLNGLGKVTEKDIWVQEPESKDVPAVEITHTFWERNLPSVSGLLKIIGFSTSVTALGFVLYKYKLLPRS
protocol_text: Inhibition of human recombinant MAO-A expressed in baculovirus-infected insect cells using p-tyraimne substrate
measurement_parameters: read-out: IC50

Examples with their reported IC50 follow.
INSERT INTO measurements (mol_smiles, result) VALUES
  ('O=C(Nc1ccc(Cl)c(Cl)c1)c1ccc2[nH]ncc2c1', '≥ 10 µM'),
  ('O=C(Nc1ccc(F)c(F)c1)c1ccc2cn[nH]c2c1', '> 10 µM'),
  ('O=C(Nc1ccccc1)c1ccc2[nH]ncc2c1', '> 10 µM');

Batch request: IC50 for each of the following compounds.
1. O=C(Nc1ccc2[nH]ncc2c1)c1c(F)cccc1Cl
2. O=C(Nc1ccc(Cl)c(Cl)c1)c1ccc2cn[nH]c2c1
3. COc1cc(NC(=O)c2ccc3cn[nH]c3c2)ccc1Cl
4. O=C(Nc1ccc(Cl)c(F)c1)c1ccc2[nH]ncc2c1
5. O=C(Nc1ccc(Cl)c(O)c1)c1ccc2cn[nH]c2c1
6. O=C(Nc1cc(Cl)cc(Cl)c1)c1ccc2cn[nH]c2c1
7. Cn1ncc2cc(/C=N/c3ccc(Cl)c(Cl)c3)ccc21
8. O=C(Nc1ccc(Cl)c(Cl)c1)c1ccc2nccn2c1

RESULT:
1. > 10 µM
2. 3.31 µM
3. > 10 µM
4. > 10 µM
5. > 10 µM
6. > 10 µM
7. < 10 µM
8. > 10 µM

Return reported IC50 values for all items listed beneath this line.
1. Cn1ccc2cc(C(=O)Nc3ccc(Cl)c(Cl)c3)ccc21
2. O=C(Nc1ccc(Cl)c(F)c1)c1ccc2cn[nH]c2c1

RESULT:
1. > 10 µM
2. > 10 µM

---

tgt: UniProt:P19643
Sequence (P19643 whole entry): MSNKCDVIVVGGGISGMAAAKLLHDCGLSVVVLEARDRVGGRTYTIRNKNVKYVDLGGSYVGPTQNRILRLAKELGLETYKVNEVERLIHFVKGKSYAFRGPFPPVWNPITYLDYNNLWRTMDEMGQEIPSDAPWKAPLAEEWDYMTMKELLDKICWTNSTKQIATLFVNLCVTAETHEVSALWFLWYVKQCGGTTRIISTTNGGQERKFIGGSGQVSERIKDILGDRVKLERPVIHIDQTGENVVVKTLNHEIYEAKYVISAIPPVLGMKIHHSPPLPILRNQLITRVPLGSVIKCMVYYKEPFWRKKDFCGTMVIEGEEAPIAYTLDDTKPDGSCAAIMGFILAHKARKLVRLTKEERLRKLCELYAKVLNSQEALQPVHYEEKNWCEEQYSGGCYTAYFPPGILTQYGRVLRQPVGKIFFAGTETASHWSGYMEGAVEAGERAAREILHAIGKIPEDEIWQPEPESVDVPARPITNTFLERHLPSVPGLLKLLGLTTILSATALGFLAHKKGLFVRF
protocol_text: Inhibition of rat MAO-B from mitochondria-enriched rat liver fractions using p-tyraimne substrate
parameter: pIC50
Give bare numbers, as −log10 of the molar value.

Consider the following illustrative entries.
INSERT INTO assay_data (mol_smiles, tgt, parameter, numeric_value) VALUES
  ('O=C(Nc1ccc(O)c(Cl)c1)c1ccc2cn[nH]c2c1', 'UniProt:P19643', 'pIC50', 5.48),
  ('O=C(Nc1ccc(Cl)c(Cl)c1)c1ccc2[nH]ncc2c1', 'UniProt:P19643', 'pIC50', 8.84),
  ('O=C(Nc1ccccc1)c1ccc2[nH]ncc2c1', 'UniProt:P19643', 'pIC50', 6.15),
  ('O=C(Nc1ccc(Cl)c(Cl)c1)c1ccc2cn[nH]c2c1', 'UniProt:P19643', 'pIC50', 6.33),
  ('O=C(Nc1ccc(Cl)c(Cl)c1)c1ccc2nccn2c1', 'UniProt:P19643', 'pIC50', 5.94);

State recorded pIC50 for all listed compounds.
1. O=C(Nc1ccc(F)c(Cl)c1)c1ccc2cn[nH]c2c1
2. O=C(Nc1cc(Cl)cc(Cl)c1)c1ccc2[nH]ncc2c1

RESULT:
5.97
8.56

---

Organism: Homo sapiens
protocol_text: Selectivity index, ratio of IC50 for human recombinant MAO-A to IC50 for human recombinant MAO-B
parameter: Ratio IC50
Answers are plain numbers.

INSERT INTO assay_data (mol_smiles, numeric_value) VALUES
  ('O=C(Nc1ccc(Cl)c(O)c1)c1ccc2[nH]ncc2c1', 80);

For every item below, please supply its Ratio IC50.
1. O=C(Nc1cnc(Cl)c(Cl)c1)c1ccc2[nH]ncc2c1
2. O=C(Nc1ccc(Cl)c(F)c1)c1ccc2[nH]ncc2c1
3. O=C(Nc1ccc(F)c(F)c1)c1ccc2[nH]ncc2c1
4. O=C(Nc1cc(Cl)cc(Cl)c1)c1ccc2[nH]ncc2c1
5. COc1ccc(NC(=O)c2ccc3cn[nH]c3c2)cc1Cl
6. O=C(Nc1ccc(Cl)c(Cl)c1)c1ccc2[nH]ncc2c1
7. O=C(Nc1ccc(Cl)c(O)c1)c1ccc2cn[nH]c2c1

RESULT:
1: 1840; 2: 15000; 3: 6290; 4: 3640; 5: 8; 6: 17100; 7: 2

Parameter requested: Ratio IC50. Apply to each item below.
1. Cn1ccc2cc(C(=O)Nc3ccc(Cl)c(Cl)c3)ccc21
2. O=C(Nc1ccc(Cl)c(Cl)c1)c1ccc2nccn2c1

RESULT:
[4420, 71]

Reported Ratio IC50 of COc1cc(NC(=O)c2ccc3[nH]ncc3c2)ccc1Cl : 2020

---

tgt: UniProtKB P27338
Sequence (P27338 whole entry): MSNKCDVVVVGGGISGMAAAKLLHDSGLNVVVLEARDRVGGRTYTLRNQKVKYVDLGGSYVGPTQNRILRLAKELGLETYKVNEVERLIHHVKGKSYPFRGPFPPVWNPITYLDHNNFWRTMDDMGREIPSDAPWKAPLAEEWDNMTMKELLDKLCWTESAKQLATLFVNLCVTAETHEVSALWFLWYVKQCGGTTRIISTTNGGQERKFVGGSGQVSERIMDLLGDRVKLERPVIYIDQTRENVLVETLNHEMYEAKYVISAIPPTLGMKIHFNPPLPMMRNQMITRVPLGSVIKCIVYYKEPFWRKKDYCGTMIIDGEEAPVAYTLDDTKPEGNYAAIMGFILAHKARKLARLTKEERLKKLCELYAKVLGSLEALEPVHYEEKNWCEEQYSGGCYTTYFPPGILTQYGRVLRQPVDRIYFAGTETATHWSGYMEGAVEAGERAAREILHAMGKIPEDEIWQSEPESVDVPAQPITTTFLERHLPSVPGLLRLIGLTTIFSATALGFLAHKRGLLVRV
protocol_text: biochemical
Description: Inhibition of human recombinant MAO-B expressed in baculovirus-infected insect cells using p-tyraimne substrate
Criterion: IC50 strictly under 300 nM. Met: 1.0. Not met: 0.0.

The examples below pair each entry with its known result.
INSERT INTO assay_data (mol_smiles, classification) VALUES
  ('O=C(Nc1ccc(Cl)c(F)c1)c1ccc2cn[nH]c2c1', 0.0),
  ('O=C(NCc1ccc(Cl)c(Cl)c1)c1ccc2[nH]ncc2c1', 0.0),
  ('Cn1ncc2cc(/C=N/c3ccc(Cl)c(Cl)c3)ccc21', 1.0),
  ('O=C(Nc1cc(Cl)cc(Cl)c1)c1ccc2[nH]ncc2c1', 1.0),
  ('O=C(Nc1ccc2[nH]ncc2c1)c1ccc(Cl)c(Cl)c1', 1.0),
  ('O=C(Nc1cc(Cl)cc(Cl)c1)c1ccc2cn[nH]c2c1', 0.0);

QUERY: Strictly below 300 nM: is that where IC50 of O=C(Nc1ccc2[nH]ncc2c1)c1cccc(Cl)c1Cl sits?
RESULT: 0.0

QUERY: Bench note: check whether COc1ccc(NC(=O)c2ccc3cn[nH]c3c2)cc1OC shows IC50 below 300 nM
RESULT: 0.0

QUERY: Please let me know if O=C(Nc1ccc(Cl)c(Cl)c1)c1ccc2nncn2c1 shows IC50 below 300 nM.
RESULT: 0.0

QUERY: Please indicate whether the reported IC50 of COc1ccc(NC(=O)c2ccc3cn[nH]c3c2)cc1Cl is strictly below 300 nM.
RESULT: 0.0

QUERY: Please let me know if Cn1cc(C(=O)Nc2ccc3[nH]ncc3c2)ccc1=O shows IC50 below 300 nM.
RESULT: 0.0

QUERY: Item O=C(Nc1ccc2cn[nH]c2c1)c1cnc(N2CCOCC2)c(Cl)c1 : IC50 beneath 300 nM, strictly?
RESULT: 1.0

---

Species on record: Homo sapiens
protocol_text: Selectivity index, ratio of IC50 for human recombinant MAO-A to IC50 for human recombinant MAO-B
Can you tell me Ratio IC50 for the items I'm about to list?

Please review the entries below; each comes with its answer.
INSERT INTO assay_data (mol_smiles, parameter, result) VALUES
  ('O=C(Nc1ccc2cn[nH]c2c1)c1cnc(N2CCOCC2)c(Cl)c1', 'Ratio IC50', '> 9'),
  ('O=C(Nc1ccc(F)c(Cl)c1)c1ccc2cn[nH]c2c1', 'Ratio IC50', '> 42');

Take each entry in turn and give its Ratio IC50.
1. COc1ccc(NC(=O)c2ccc3[nH]ncc3c2)cc1Cl
2. O=C(Nc1ccc(Cl)c(F)c1)c1ccc2cn[nH]c2c1

RESULT:
[2920, "> 31"]

Hi, could you look up Ratio IC50 for each item in my list?
1. O=C(Nc1ccc(Cl)c(Cl)c1)c1ccc2nncn2c1
2. O=C(Nc1ccc2[nH]ncc2c1)c1ccc(Cl)c(Cl)c1
3. Cn1ncc2cc(/C=N/c3ccc(Cl)c(Cl)c3)ccc21
4. O=C(NCc1ccc(Cl)c(Cl)c1)c1ccc2[nH]ncc2c1
5. COc1ccc(NC(=O)c2ccc3[nH]ncc3c2)cc1OC
6. O=C(Nc1ccccc1)c1ccc2[nH]ncc2c1
7. COc1cc(NC(=O)c2ccc3cn[nH]c3c2)ccc1Cl

RESULT:
1. > 4
2. 806
3. 9710
4. > 25
5. > 54
6. > 86
7. 4

Sure, the documented Ratio IC50 for O=C(Nc1ccc(F)c(F)c1)c1ccc2cn[nH]c2c1 is > 7
